Target: Gcr1 (UniProt P07261)
Sequence: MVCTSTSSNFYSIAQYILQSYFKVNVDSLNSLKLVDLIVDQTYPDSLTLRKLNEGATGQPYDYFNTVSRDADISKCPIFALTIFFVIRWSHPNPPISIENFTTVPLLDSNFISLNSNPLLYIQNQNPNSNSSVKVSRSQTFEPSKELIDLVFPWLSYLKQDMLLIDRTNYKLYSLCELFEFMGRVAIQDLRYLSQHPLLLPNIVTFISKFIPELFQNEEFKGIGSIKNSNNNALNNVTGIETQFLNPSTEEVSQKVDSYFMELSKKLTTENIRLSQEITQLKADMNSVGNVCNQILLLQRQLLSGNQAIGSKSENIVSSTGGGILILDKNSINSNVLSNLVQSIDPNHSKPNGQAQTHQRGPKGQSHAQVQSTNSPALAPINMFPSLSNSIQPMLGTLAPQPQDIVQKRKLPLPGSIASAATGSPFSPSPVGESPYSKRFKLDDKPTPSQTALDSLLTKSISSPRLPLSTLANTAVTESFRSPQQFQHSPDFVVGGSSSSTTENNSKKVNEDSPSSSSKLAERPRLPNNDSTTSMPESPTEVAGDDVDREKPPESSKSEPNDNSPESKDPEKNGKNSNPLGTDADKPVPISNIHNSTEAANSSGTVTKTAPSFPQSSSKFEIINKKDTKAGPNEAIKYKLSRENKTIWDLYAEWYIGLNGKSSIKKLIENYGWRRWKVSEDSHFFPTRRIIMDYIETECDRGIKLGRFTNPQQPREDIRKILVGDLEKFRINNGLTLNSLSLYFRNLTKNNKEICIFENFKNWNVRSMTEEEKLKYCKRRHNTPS
Assay: PBM E-score (8-mer binding enrichment) (E-score (-0.5 to 0.5)); higher = stronger / more preferred TF binding
Settings: protein concentration: 100 nM; construct: GST-full length
The full ranking holds about 33,000 sequences; the median of “E-score (-0.5 to 0.5)” is about -0.011, and the highest 2% start at about 0.28. Shown is part of a subset that was picked to be rich in the highest values.
measured attribute: PBM E-score

> print(dat)
    entry.sequence  reported.result
 1        GGATCAAC         -0.00409
 2        AATTTACG           0.0625
 3        CTCGCGCC           -0.166
 4        AGATCCAA            0.186
 5        CGCCGCAG            0.103
 6        AGATCCAC            0.183
 7        AACAGTGC           -0.142
 8        CAGTGGGC          -0.0102
 9        AGGAACCC            0.414
10        GGATCCAA            0.299
11        GCCGGCTA           -0.145
12        GGTAGCAC           0.0683
13        AACATCGC           -0.031
14        CAATCGGG           0.0633
15        GGAAACCC            0.106
16        GGGAACCC            0.336
17        GCACCCAC            0.397
18        ATTTTACC           0.0326
19        CGATCCAA           0.0146
20        GTCAGAAA           0.0237
21        ACACCCAC           0.0847
22        CCACCCAC          -0.0236

Hey, just so you know, these numbers are from the supplement of paper PMC3334620.
